Test: Clearance in Sprague-Dawley rat at 0.5 to 1 mg/kg, iv and 10 mg/kg, po
Type: ADME, organism-based
Conditions: in vivo
Listed below: clearance values for each entry.
readout-name: clearance (mL/min/kg)

INSERT INTO measurements (molecule, reported_value) VALUES
  ('NCc1ccccc1-c1ccc(C(=O)N2N=C(c3cccnc3)CC2c2ccccc2O)s1 (racemic)', 65),
  ('O=C(c1ccc(-c2ccc3c(c2)CNC3)s1)N1N=C(c2cccnc2)CC1c1ccccc1O (racemic)', 58.3),
  ('NCc1ccccc1-c1ccc(C(=O)N2N=C(c3cccnc3)CC2c2c(O)cccc2F)s1 (racemic)', 26.7),
  ('O=C(c1ccc(-c2cccc3c2CCNC3)s1)N1N=C(c2cccnc2)CC1c1c(O)cccc1F (racemic)', 11.7),
  ('O=C(c1ccc(-c2ccc3c(c2)CNC3)s1)N1N=C(c2cccnc2)CC1c1c(O)cccc1F (racemic)', 15);

---

Experiment: Bioavailability in Sprague-Dawley rat at 0.5 to 1 mg/kg, iv and 10 mg/kg, po
Assay type: ADME, organism-based
Conditions: in vivo
Binary call on bioavailability: true from 80% upward, false beneath that.

INSERT INTO results (compound, class_assignment) VALUES
  ('O=C(c1ccc(-c2cccc3c2CCNC3)s1)N1N=C(c2cccnc2)CC1c1c(O)cccc1F (racemic)', 'true'),
  ('O=C(c1ccc(-c2ccc3c(c2)CNC3)s1)N1N=C(c2cccnc2)CC1c1ccccc1O (racemic)', 'false'),
  ('O=C(c1ccc(-c2ccc3c(c2)CNC3)s1)N1N=C(c2cccnc2)CC1c1c(O)cccc1F (racemic)', 'false'),
  ('NCc1ccccc1-c1ccc(C(=O)N2N=C(c3cccnc3)CC2c2c(O)cccc2F)s1 (racemic)', 'true'),
  ('NCc1ccccc1-c1ccc(C(=O)N2N=C(c3cccnc3)CC2c2ccccc2O)s1 (racemic)', 'false');

---

Biological target: Serine/threonine-protein kinase B-raf (Homo sapiens, UniProt P15056, V600E)
Sequence (P15056 2-766 V600E limits assumed): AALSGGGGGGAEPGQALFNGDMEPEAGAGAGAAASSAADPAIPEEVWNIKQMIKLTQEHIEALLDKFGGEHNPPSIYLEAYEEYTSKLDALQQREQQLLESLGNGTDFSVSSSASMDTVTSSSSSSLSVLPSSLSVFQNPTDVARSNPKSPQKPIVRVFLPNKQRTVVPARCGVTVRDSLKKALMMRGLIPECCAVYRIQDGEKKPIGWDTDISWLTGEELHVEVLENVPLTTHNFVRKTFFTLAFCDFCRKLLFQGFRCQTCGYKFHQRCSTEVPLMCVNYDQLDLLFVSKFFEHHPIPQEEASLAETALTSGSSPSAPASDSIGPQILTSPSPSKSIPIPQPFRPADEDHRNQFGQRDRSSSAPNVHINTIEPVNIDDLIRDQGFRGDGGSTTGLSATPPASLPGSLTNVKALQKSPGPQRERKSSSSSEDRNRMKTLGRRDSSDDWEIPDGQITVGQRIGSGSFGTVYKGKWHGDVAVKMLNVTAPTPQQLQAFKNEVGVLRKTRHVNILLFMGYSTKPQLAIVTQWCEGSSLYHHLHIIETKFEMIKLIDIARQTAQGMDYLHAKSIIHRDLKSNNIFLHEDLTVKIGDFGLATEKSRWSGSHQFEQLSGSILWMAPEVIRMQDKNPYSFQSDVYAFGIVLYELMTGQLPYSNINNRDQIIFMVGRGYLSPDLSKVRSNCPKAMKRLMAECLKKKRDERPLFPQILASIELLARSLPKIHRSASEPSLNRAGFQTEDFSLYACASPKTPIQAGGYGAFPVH
Assay: Inhibition of B-Raf V600E mutant after 3 hrs
readout-name: IC50 (nM)

INSERT INTO results (compound, target, reported_value) VALUES
  ('O=C(c1ccc(-c2ccc3c(c2)CNC3)s1)N1N=C(c2cccnc2)CC1c1c(O)cccc1F (racemic)', 'Serine/threonine-protein kinase B-raf (Homo sapiens, UniProt P15056, V600E)', 2),
  ('O=C(c1ccc(-c2ccccn2)s1)N1N=C(c2cccnc2)CC1c1ccccc1O (racemic)', 'Serine/threonine-protein kinase B-raf (Homo sapiens, UniProt P15056, V600E)', 23),
  ('NCc1ccccc1-c1ccc(C(=O)N2N=C(c3cncc(F)c3)CC2c2ccccc2O)s1 (racemic)', 'Serine/threonine-protein kinase B-raf (Homo sapiens, UniProt P15056, V600E)', 21),
  ('O=C(c1ccco1)N1N=C(c2cccnc2)CC1c1ccccc1O (racemic)', 'Serine/threonine-protein kinase B-raf (Homo sapiens, UniProt P15056, V600E)', 200);

---

Listed below: pIC50 values for each entry.
Biological target: Serine/threonine-protein kinase B-raf (Homo sapiens, UniProt P15056, V600E)
Assay: Inhibition of B-Raf V600E mutant after 2 hrs
Conditions: in the assay text read “after 3 hrs” for “after 2 hrs”
pIC50: −log10 of the molar value.
readout-name: pIC50

INSERT INTO results (compound, reported_value) VALUES
  ('O=C(c1ccc(-c2ccccn2)s1)N1N=C(c2cccnc2)CC1c1cccc(F)c1O (racemic)', 7.89),
  ('Cc1nc(-c2ccc(C(=O)N3N=C(c4cccnc4)CC3c3ccccc3O)s2)cs1 (racemic)', 8.15),
  ('NCc1ccccc1-c1ccc(C(=O)N2N=C(c3cccnc3)CC2c2c(O)cccc2F)s1 (racemic)', 8.15),
  ('O=C(c1ccc(-c2ccccn2)s1)N1N=C(c2cccnc2)CC1c1cc(F)ccc1O (racemic)', 8.15),
  ('Cn1cc(-c2ccc(C(=O)N3N=C(c4cccnc4)CC3c3ccccc3O)s2)cn1 (racemic)', 8.05),
  ('O=C(c1ccc(-c2ccccn2)s1)N1N=C(c2cccnc2)CC1c1ccc(F)cc1O (racemic)', 7.96),
  ('NCc1ccccc1-c1ccc(C(=O)N2N=C(c3cncc(N)c3)CC2c2ccccc2O)s1 (racemic)', 8.15),
  ('O=C(c1ccc(-c2cccc(CN3CCCC3)c2)s1)N1N=C(c2cccnc2)CC1c1c(O)cccc1F (racemic)', 8.10),
  ('O=C(c1ccc(-c2cccc(CN3CCCC3)c2)s1)N1N=C(c2cccnc2)CC1c1ccccc1O (racemic)', 8.22),
  ('NCc1cccc(-c2ccc(C(=O)N3N=C(c4cccnc4)CC3c3ccccc3O)s2)c1 (racemic)', 8.22);

---

Target: Serine/threonine-protein kinase B-raf (Homo sapiens, UniProt P15056, V600E)
Test: Inhibition of B-Raf V600E mutant-mediated pERK phosphorylation in human A375 cells after 3 hrs by whole cell ELISA assay
Assay type: cell-based, A-375
pIC50: −log10 of the molar value.
Listed below: pIC50 values for each entry.
readout-name: pIC50

INSERT INTO results (compound, reported_value) VALUES
  ('NCc1ccc(-c2ccc(C(=O)N3N=C(c4cccnc4)CC3c3ccccc3O)s2)cc1 (racemic)', 7.09),
  ('O=C(c1ccc(-c2ccc3c(c2)CNCC3)s1)N1N=C(c2cccnc2)CC1c1ccccc1O (racemic)', 7.60),
  ('O=C(c1ccc(-c2cccc3c2CCNC3)s1)N1N=C(c2cccnc2)CC1c1c(O)cccc1F (racemic)', 6.74),
  ('O=C(c1ccc(-c2ccccn2)s1)N1N=C(c2cccnc2)CC1c1ccccc1O (racemic)', 6.74),
  ('NCc1ccc(-c2ccc(C(=O)N3N=C(c4cccnc4)CC3c3c(O)cccc3F)s2)cc1 (racemic)', 7.43),
  ('NCc1cccc(-c2ccc(C(=O)N3N=C(c4cccnc4)CC3c3ccccc3O)s2)c1 (racemic)', 6.41),
  ('Cc1ccccc1-c1ccc(C(=O)N2N=C(c3cccnc3)CC2c2ccccc2O)s1 (racemic)', 5.82),
  ('O=C(c1ccc(-c2ccc3c(c2)CNC3)s1)N1N=C(c2cccnc2)CC1c1ccccc1O (racemic)', 7.72),
  ('O=C(c1ccc(-c2ccc3c(c2)CNCC3)s1)N1N=C(c2cccnc2)CC1c1c(O)cccc1F (racemic)', 7.68),
  ('Nc1cncc(C2=NN(C(=O)c3ccc(-c4ccccn4)s3)C(c3ccccc3O)C2)c1 (racemic)', 7.51),
  ('O=C(c1ccc(-c2ccc3c(c2)CNC3)s1)N1N=C(c2cncc(CO)c2)CC1c1c(O)cccc1F (racemic)', 6.92),
  ('O=C(c1ccc(-c2ccccn2)s1)N1N=C(c2cccnc2)CC1c1cccc(F)c1O (racemic)', 5.85),
  ('O=C(c1ccc(-c2ccccn2)s1)N1N=C(c2cccnc2)CC1c1c(O)cccc1F (racemic)', 7.10),
  ('O=C(c1ccc(-c2ccccn2)s1)N1N=C(c2cccnc2)CC1c1ccccc1O (single isomer, unassigned; enantiomer 1)', 6.55);

---

Target: Serine/threonine-protein kinase B-raf (Homo sapiens, UniProt P15056, V600E)
Test: Inhibition of B-Raf V600E mutant-mediated pERK phosphorylation in human A375 cells after 3 hrs by whole cell ELISA assay
Type: cell-based, A-375
readout-name: IC50 (nM)

INSERT INTO results (molecule, relation_qualifier, reported_value) VALUES
  ('O=C(c1ccc(-c2ccccn2)s1)N1N=C(c2cccnc2)CC1c1cccc(O)c1 (racemic)', '>', 25000),
  ('O=C(c1ccc(-c2ccc3c(c2)CCNC3)s1)N1N=C(c2cccnc2)CC1c1c(O)cccc1F (racemic)', '=', 34),
  ('O=C(c1ccc(-c2ccc3c(c2)CNC3)s1)N1N=C(c2cccnc2)CC1c1c(O)cccc1F (racemic)', '=', 60),
  ('O=C(c1ccc(-c2ccc(CO)cc2)s1)N1N=C(c2cccnc2)CC1c1ccccc1O (racemic)', '=', 140),
  ('O=C(c1ccc(-c2ccc3c(c2)CCNC3)s1)N1N=C(c2cccnc2)CC1c1ccccc1O (racemic)', '=', 21);
